# test protocol: Pharmacokinetic experiment in rats
# Assay type: in vivo, SD rat
# assay conditions: rat, plasma, po; male SD rats, i.g., 3 mg/kg
measurement kind: MRT (h)

{"columns": ["compound", "MRT [h]"],
 "data": [
  ["CC1(C)CCC(CN2CCN(c3ccc(C(=O)NS(=O)(=O)c4ccc(NCC5CCOCC5)c([N+](=O)[O-])c4)c(Oc4cnc5[nH]ccc5c4)c3)CC2)=C(c2ccc(Cl)cc2)C1 [Venetoclax, reference compound]", 5.22],
  ["[2H]C([2H])(Nc1ccc(S(=O)(=O)NC(=O)c2ccc(N3CCN(CC4=C(c5ccc(Cl)cc5)CC(C)(C)CC4)CC3)cc2Oc2cnc3[nH]ccc3c2)cc1[N+](=O)[O-])C1CCOCC1 (single isomer, unassigned)", 5.07]
]}
